B1: TPR 5TU (parent)
chain: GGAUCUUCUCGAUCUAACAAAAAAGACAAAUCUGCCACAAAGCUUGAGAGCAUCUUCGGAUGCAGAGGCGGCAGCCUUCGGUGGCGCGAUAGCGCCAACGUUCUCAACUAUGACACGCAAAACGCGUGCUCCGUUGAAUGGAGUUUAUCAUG

Variants of: B1
Protocol: polymerase ribozyme fitness, log enrichment relative to wild type (log ratio); higher = more active; in vitro selection for triplet polymerase activity
Variants at the floor of the assay were thinned out.
Quantity kind: polymerase ribozyme fitness (log ratio)
No unit in the answer, please; the number alone is enough.

These solved cases illustrate the format of a correct answer.
{"Mutation code": "A121G U135A", "polymerase ribozyme fitness (log ratio)": -0.777}
{"Mutation code": "A21U A29C G92A C99U G117U U130G", "polymerase ribozyme fitness (log ratio)": -3.76}
{"Mutation code": "C51G C95U", "polymerase ribozyme fitness (log ratio)": -2.73}
{"Mutation code": "A21C A24U G46U C57U C93U", "polymerase ribozyme fitness (log ratio)": -1.65}
{"Mutation code": "A19U G86U", "polymerase ribozyme fitness (log ratio)": -1.75}
{"Mutation code": "C75U G84U C99U A115C", "polymerase ribozyme fitness (log ratio)": -3.35}
{"Mutation code": "U61A C99G", "polymerase ribozyme fitness (log ratio)": -3.23}
{"Mutation code": "C27G A28U G50U C87G G140C", "polymerase ribozyme fitness (log ratio)": -3.94}

The variant G92A G141C A147U showed polymerase ribozyme fitness (log ratio) equal to -3.44

The variant C8G C87U showed polymerase ribozyme fitness (log ratio) equal to -3.36

The variant A41U G86U C125U U127G showed polymerase ribozyme fitness (log ratio) equal to -4.16

The variant A39G A41C showed polymerase ribozyme fitness (log ratio) equal to -1.44

The variant U56A G58U C63A A115U C118U showed polymerase ribozyme fitness (log ratio) equal to -1.35
